// data source = patent US8889668B2

tgt: S1P1 (Homo sapiens (Human))
Sequence (P21453 whole entry, species assumed): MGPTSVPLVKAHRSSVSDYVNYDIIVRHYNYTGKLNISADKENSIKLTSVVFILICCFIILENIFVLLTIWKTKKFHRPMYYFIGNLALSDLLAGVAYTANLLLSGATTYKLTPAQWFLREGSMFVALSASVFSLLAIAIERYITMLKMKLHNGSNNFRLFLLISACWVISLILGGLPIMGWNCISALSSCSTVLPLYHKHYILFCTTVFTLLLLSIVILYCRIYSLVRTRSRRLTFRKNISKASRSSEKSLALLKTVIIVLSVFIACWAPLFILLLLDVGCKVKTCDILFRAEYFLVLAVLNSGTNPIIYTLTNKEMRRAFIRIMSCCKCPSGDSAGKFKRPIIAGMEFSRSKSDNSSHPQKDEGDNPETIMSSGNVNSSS
method description: 35S-GTPγS binding, membranes from CHO cells expressing S1P1
recorded conditions: 60 min 30° C., read-out: S1P1 GTPgS EC50
measurement type: EC50 (nM)

compound="COc1ccccc1-c1noc(-c2ccc(N3CCCCC3C)c(C(F)(F)F)c2)n1 (stereo not shown) [Compound I35]" measured_number=2
compound="FC(F)(F)Oc1ccccc1-c1noc(-c2ccc(N3CCCCC3)cc2)n1 [Compound I3]" measured_number=1780
compound="COc1ccc(F)cc1-c1noc(-c2ccc(N3C(C)CCC3C)c([N+](=O)[O-])c2)n1 (stereo not shown) [Compound I39]" measured_number=267
compound="Cc1ccccc1-c1ccc(-c2nc(-c3ccccc3OC(F)(F)F)no2)cc1[N+](=O)[O-] [Compound I36]" measured_number=10
